Recorded KINOMEscan: LYN, one value per entry.
Molecular target: panel of 442 kinases (Homo sapiens)
Construct: purchased KINOMEscan
Sequence (P07948 whole entry): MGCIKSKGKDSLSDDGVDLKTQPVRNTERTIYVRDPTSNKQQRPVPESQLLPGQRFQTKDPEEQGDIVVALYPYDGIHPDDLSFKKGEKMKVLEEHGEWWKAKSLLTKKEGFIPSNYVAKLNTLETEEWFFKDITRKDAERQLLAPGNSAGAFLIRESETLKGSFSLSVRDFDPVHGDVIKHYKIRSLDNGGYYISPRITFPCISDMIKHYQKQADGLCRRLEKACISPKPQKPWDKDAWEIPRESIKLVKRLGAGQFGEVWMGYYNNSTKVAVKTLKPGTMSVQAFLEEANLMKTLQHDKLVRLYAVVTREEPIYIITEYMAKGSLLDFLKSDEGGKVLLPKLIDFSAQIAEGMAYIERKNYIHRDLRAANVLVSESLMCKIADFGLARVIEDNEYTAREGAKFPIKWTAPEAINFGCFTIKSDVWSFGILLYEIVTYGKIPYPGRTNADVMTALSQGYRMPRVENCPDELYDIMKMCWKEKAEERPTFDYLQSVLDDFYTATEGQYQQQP
Assay type: binding
Details: Compound Concentration 10 µM
Give a plain numeric answer without units written out.

Below are worked cases with known answers.
Cpd Smiles	Readout Type	Readout Value
COc1cc(C(=O)N2CCC(N3CCN(C)CC3)CC2)ccc1Nc1ncc2c(n1)N(C)c1ccccc1C(=O)N2C	KINOMEscan: LYN	100
CCOc1cc(C(=O)N2CCC(N3CCN(C)CC3)CC2)ccc1Nc1ncc2c(n1)N(C1CCCC1)c1ccccc1C(=O)N2C	KINOMEscan: LYN	100
COc1cc(C(=O)N2CCC(N3CCN(C)CC3)CC2)ccc1Nc1ncc2c(n1)N1CCc3cccc(c31)C(=O)N2C	KINOMEscan: LYN	83

# evaluate next
Query block: # return recorded KINOMEscan: LYN for entry COc1cc(C(=O)N2CCC(N3CCN(C)CC3)CC2)ccc1Nc1ncc2c(n1)N(C1CCCC1)c1ccccc1C(=O)N2C
Result block: 85
